Reference source: patent US7160903B2

Here the recorded melting point is given for each entry.

COMPOUND: O=C(O)C[C@@H](C(=O)O)N(Cc1ccncc1)S(=O)(=O)c1ccc(-c2ccccc2)cc1
melting point: 105 °C

COMPOUND: COc1ccc(CC(NS(=O)(=O)c2ccc(-c3ccc(N(C)C)cc3)cc2)C(=O)O)cc1OC (racemic) [Example 24]
melting point: 230 °C

COMPOUND: CN(C)c1ccc(-c2ccc(S(=O)(=O)N[C@@H](CCC(=O)O)C(=O)O)cc2)cc1
melting point: > 108 °C (dec.)

COMPOUND: O=C(CC[C@H](NS(=O)(=O)c1ccc(-c2ccccc2)cc1)C(=O)O)Nc1ccncc1
melting point: > 290 °C (dec.)

COMPOUND: COC(=O)c1ccc(NC(=O)CC[C@H](NS(=O)(=O)c2ccc(-c3ccccc3)cc2)C(=O)O)cc1
melting point: 245 to 245.5 °C

COMPOUND: O=C(O)CC[C@H](NS(=O)(=O)c1ccc(-c2ccccc2)cc1)C(=O)O
melting point: 145 to 146 °C

COMPOUND: O=C(O)[C@@H](Cc1c[nH]c2ccccc12)NS(=O)(=O)c1ccc(-c2ccc(N3CCCC3)cc2)cc1
melting point: > 145 °C (dec.)

COMPOUND: O=C(O)[C@@H](CCO)NS(=O)(=O)c1ccc(Oc2ccccc2)cc1 (racemic)
melting point: 134 °C

COMPOUND: CSCC[C@@H](NS(=O)(=O)c1ccc(-n2nccn2)cc1)C(=O)O
melting point: 155.5 to 156.5 °C

COMPOUND: O=C(CC[C@H](NS(=O)(=O)c1ccc(-c2ccc(N3CCCC3)cc2)cc1)C(=O)O)Nc1ccc(F)cc1
melting point: > 245 °C (dec.)

COMPOUND: CSCC[C@@H](NS(=O)(=O)c1ccc(-c2ccon2)s1)C(=O)O
melting point: 70 to 76 °C

COMPOUND: NNC(=O)CC[C@H](NS(=O)(=O)c1ccc(-c2ccccc2)cc1)C(=O)O
melting point: 205 to 207 °C

COMPOUND: O=C(O)C1CCCCN1S(=O)(=O)c1ccc(-n2nccn2)cc1 (racemic)
melting point: 195 to 196 °C

COMPOUND: O=C(O)[C@@H](NS(=O)(=O)c1ccc(Oc2ccccc2)cc1)[C@@H](O)c1ccc2c(c1)OCO2 (racemic)
melting point: 176 °C

COMPOUND: O=C(CCC(NS(=O)(=O)c1ccc(-c2ccc(Cl)cc2)cc1)C(=O)O)Nc1ccccc1 (racemic)
melting point: 238 to 239 °C

COMPOUND: O=C(O)[C@H](CCc1nc2ccccc2[nH]1)NS(=O)(=O)c1ccc(-c2ccccc2)cc1
melting point: > 250 °C (dec.)

###

COMPOUND: O=C(CC[C@H](NS(=O)(=O)c1ccc(-c2ccccc2)cc1)C(=O)O)Nc1ccc([N+](=O)[O-])cc1
melting point: 232 to 233 °C
--
COMPOUND: CSCC[C@@H](NS(=O)(=O)c1ccc(-c2ccc(N(C)C)cc2)cc1)C(=O)O
melting point: 180 to 186 °C
--
COMPOUND: O=C(O)[C@H](CCC(=O)N1CCc2ccccc21)NS(=O)(=O)c1ccc(-c2ccc(N3CCCC3)cc2)cc1
melting point: > 130 °C (dec.)
--
COMPOUND: Br.CN(C)c1ccc(-c2ccc(S(=O)(=O)N[C@@H](CC(=O)O)C(=O)O)cc2)cc1
melting point: 121 to 127 °C
--
COMPOUND: O=C(O)[C@H](CO)NS(=O)(=O)c1ccc(Oc2ccccc2)cc1
melting point: 202 to 203 °C
--
COMPOUND: O=C(O)CC[C@H](NS(=O)(=O)c1ccc(-c2ccc(N3CCCC3)cc2)cc1)C(=O)O
melting point: > 220 °C (dec.)
--
COMPOUND: CN(C)c1ccc(-c2ccc(S(=O)(=O)NC(CCC(=O)Nc3ccccc3)C(=O)O)cc2)cc1 (racemic)
melting point: 212 to 214 °C
--
COMPOUND: O=C(O)CCN(CC(=O)O)S(=O)(=O)c1ccc(Oc2ccc(Cl)cc2)cc1
melting point: 169 to 171 °C
--
COMPOUND: O=C(O)C[C@@H](NS(=O)(=O)c1ccc(-c2ccccc2)cc1)C(=O)O
melting point: > 55 °C
--
COMPOUND: O=C(CC[C@H](NS(=O)(=O)c1ccc(-c2ccccc2)cc1)C(=O)O)Nc1ccc(C(=O)O)cc1
melting point: 266 °C
--
COMPOUND: O=C(O)C1CCCCN1S(=O)(=O)c1ccc(-c2ccccc2)cc1 (racemic)
melting point: 174.5 to 175.5 °C
--
COMPOUND: O=C(O)[C@H](CCC(=O)N1CCc2ccccc21)NS(=O)(=O)c1ccc(-c2ccccc2)cc1
melting point: 182.5 to 183.5 °C
--
COMPOUND: O=C(O)CCCC(NS(=O)(=O)c1ccc(-c2ccccc2)cc1)C(=O)O (racemic)
melting point: 171.5 to 172 °C
--
COMPOUND: O=C(CC[C@H](NS(=O)(=O)c1ccc(-c2ccccc2)cc1)C(=O)O)Nc1ccc(C(F)(F)F)cc1
melting point: 265 °C
